Measured values drawn from patent US20250171459A1 for this set.

Consider the following compounds; for each one, report its IC50.
TESTED TARGET: APOL1 (Homo sapiens, UniProt O14791)
Sequence (O14791 whole entry S342G/I384M, form open): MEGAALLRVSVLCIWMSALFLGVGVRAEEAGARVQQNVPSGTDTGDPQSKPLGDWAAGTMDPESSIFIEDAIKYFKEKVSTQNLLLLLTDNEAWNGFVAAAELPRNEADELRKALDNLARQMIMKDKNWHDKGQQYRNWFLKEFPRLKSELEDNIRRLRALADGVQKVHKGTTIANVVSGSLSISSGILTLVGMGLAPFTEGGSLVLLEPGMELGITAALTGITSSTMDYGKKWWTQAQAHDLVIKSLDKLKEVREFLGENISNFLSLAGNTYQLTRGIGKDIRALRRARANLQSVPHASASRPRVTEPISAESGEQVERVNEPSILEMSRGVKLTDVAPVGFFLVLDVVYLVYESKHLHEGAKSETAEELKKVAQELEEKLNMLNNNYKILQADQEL
EXPERIMENTAL DETAILS: MultiTox-Fluor Multiplex Cytotoxicity Assay in tet-inducible APOL1 T-REx-HEK293 cells (cell rescue, ratio of dead to live cells)
CONDITION PARAMETERS: tet-inducible transgenic APOL1 T-REx-HEK293 cell lines, 50 ng/mL tet, 24 hours; read-out: IP50 (i.e., IC50 for cell proliferation)
Method: The MultiTox-Fluor Multiplex Cytotoxicity Assay is a single-reagent-addition, homogeneous, fluorescence assay that measures the number of live and dead cells simultaneously in culture wells. […] The MultiTox reagent was added to each well and placed back in the incubator for an additional 30 minutes. The plate was read on the EnVision plate reader. A ratio of dead to live cells was used to normalize, and data was imported, analyzed, and fit using Genedata Screener (Basel, Switzerland) software. […]

Short answer for CCc1cc2c(s1)CCO[C@@]21CCN(C[C@H]2C[C@@H](NS(=O)(=O)c3cncc(Cl)c3)C2)[C@@H](C)C1 [Compound 407] : IC50 was < 100 nM

Short answer for CCc1cc2c(s1)CCOC21CCN(Cc2cnn(CCS(C)(=O)=O)c2)CC1 [Compound 1130] : IC50 was 100 to 500 nM

Short answer for CCc1cc2c(s1)CCO[C@@]21CCN(C[C@H]2C[C@@H](NC(=O)C3(O)CC(O)C3)C2)[C@@H](C)C1 (stereo partly shown) [Compound 357] : IC50 was < 100 nM

Short answer for CCc1cc2c(s1)CCOC21CCN(Cc2ccc(OC)nc2)CC1 [Compound 1157] : IC50 was 100 to 500 nM

Short answer for CCc1cc2c(s1)CCO[C@@]21CCN(C[C@H]2C[C@@H](NC(=O)CO)C2)[C@@H](C)C1 [Compound 351] : IC50 was 100 to 500 nM

Short answer for C[C@H]1C[C@@]2(CCN1Cc1cnn(CCS(C)(=O)=O)c1)OCCc1sc(CC(F)F)cc12 [Compound 523] : IC50 was < 100 nM

Short answer for CCc1cc2c(s1)CCO[C@@]21CCN(Cc2cn(CC(CO)OC)nn2)[C@@H](C)C1 (stereo partly shown) [Compound 139] : IC50 was < 100 nM

Short answer for CCc1cc2c(s1)CCO[C@@]21CCN(Cc2ccc(NC(C)(C)CO)nc2)[C@@H](C)C1 [Compound 228] : IC50 was < 100 nM

Short answer for CCc1cc2c(s1)CCO[C@@]21CCN(CC2CN(C(=O)c3ccc(=O)[nH]c3)C2)[C@@H](C)C1 [Compound 485] : IC50 was < 100 nM

Short answer for C[C@H]1C[C@@]2(CCN1Cc1cnn(C)c1)OCC(C)(O)c1cc(Cl)sc12 (stereo partly shown) [Compound 848] : IC50 was < 100 nM

Short answer for CCc1cc2c(s1)CCO[C@@]21CCN(Cc2cn(CCS(=O)(=O)C(C)(C)C)nn2)[C@@H](C)C1 [Compound 159] : IC50 was 100 to 500 nM

Short answer for COCC(O)Cn1cc(CN2CC[C@]3(C[C@@H]2C)OCCc2c3sc(C(F)(F)F)c2CO)cn1 (stereo partly shown) [Compound 958] : IC50 was < 100 nM

Short answer for C[C@H]1C[C@@]2(CCN1Cc1ncn3ccccc13)OCCc1c2sc(Cl)c1CO [Compound 740] : IC50 was 500 to 1000 nM
